tested on: HCT-116; test: NCI tumour cell line growth inhibition, 48 h
The source made the active and inactive calls. No stated cut-off is given here; in the data, active = GI50 up to about 1.1 µM and inactive = higher.
Labels: active, inactive

• N=C(N)c1ccc(/N=N\c2c(O)ccc3c2[nH]c2ccccc23)cc1 = inactive
• Cc1ccc(NC(=O)/C(=N/NC(=O)CC#N)C2C(=O)N(c3ccccc3)N=C2N)cc1C (stereo unspecified) = inactive
• CC12C3CC4C5CC(C(C53)[C@@H]1NCc1ccccc1)C42 (stereo partly specified) = inactive
• COc1cccc(SSc2cccc(OC)c2C(=O)O)c1C(=O)O = inactive
• O=CN/C=C/c1cc(O)ccc1O [ERBSTATIN] = inactive
• Cc1ccc(S(=O)(=O)OC2CC=CC2)cc1 = inactive
• O=C(Nc1ccccc1C(=O)NCc1ccccc1)/C(=C/c1ccccc1O)NC(=O)c1ccccc1 = inactive
• Clc1ccccc1C1SCc2nc3ccccc3n21 (stereo unspecified) = inactive
• O=S1(=O)OCCOS(=O)(=O)C1(F)Cc1ccccc1 = inactive
• COC(=O)c1ccccc1NC(=O)/C(=N\NC(C)(C)C)C(C#N)c1nc(-c2ccc([N+](=O)[O-])cc2)cs1 (stereo unspecified) = inactive
• O=C(O)CCC(=O)c1ccc2c(c1)C(C(=O)O)CC2 (stereo unspecified) = active
• COc1ccc(/C=C/c2nccc3ccccc23)cc1OC = inactive
• CC(=O)Oc1cccc2c1C(=O)C(Br)(Br)CCC2 = inactive
• O=C1NC(=O)C(CCC(=O)c2ccc3ccccc3c2)C(=O)N1 = inactive
• FC(F)(F)C1(C(F)(F)F)O[Si]2(OC(C(F)(F)F)(C(F)(F)F)c3ccccc32)c2ccccc21 = inactive
• C=C(C)CNCC(=C)C.Oc1c(Cl)c(Cl)c(Cl)c(Cl)c1Cl = inactive
• O=c1cc2oc3ccc4ccccc4c3cc-2c(=O)[nH]1 = inactive
• CSCCC(NC(=O)OC(C)(C)C)C(=O)NCCNc1ccc(NCCNC(=O)C(CCSC)NC(=O)OC(C)(C)C)c2c1C(=O)c1ccccc1C2=O (stereo unspecified) = inactive
• NCCCC(N)(C(=O)O)C(F)F (stereo unspecified) [EFLORNITHINE] = inactive
• CN(C)c1ccc(C=c2c3ccccc3n3c2cc(-c2ccc(Cl)cc2)[n+]3C)cc1 = active
• CC(=O)OCC1OC(Nc2ncc(-c3ccc(C)cc3)s2)C(OC(C)=O)C(OC(C)=O)C1OC(C)=O (stereo unspecified) = inactive

###

system: HCC 2998; assay: NCI tumour cell line growth inhibition, 48 h
Active and inactive are the calls of the source. No stated cut-off is given here; in the data, active = GI50 up to about 1.1 µM and inactive = higher.
Labels: Yes = active, No = inactive

• COC(=O)C1C(O)C(C)C(O)C(C)(O)/C=C\C=C(C)C(=O)Nc2c(C)c(OC(C)=O)c3c(c2O)C(=O)C(C)=C2OCOC(=C23)C(C)=CC(C)(O)C(O)C(C)C1OC(C)=O (centres undefined) = No
• COc1cc([C@@H]2c3cc4c(cc3[C@@H](NC(=O)c3ccc(N)cc3)C3COC(=O)[C@@H]32)OCO4)cc(OC)c1O (some centres undefined) = No
• CC(C)(C)[C@@H]1NC(=O)CN1C(=O)OCc1ccccc1 = No
• CN(C)CCOc1cc2c(c3ccccc13)-c1ccccc1C2=O = No
• CCOC(=O)CC[C@@H](NC(=O)c1ccc(N[C@@H]2c3cc4c(cc3C(c3cc(OC)c(O)c(OC)c3)C3C(=O)OC[C@@H]32)OCO4)cc1)C(=O)OCC (some centres undefined) = Yes
• CC(C)C1=C(O)C(=O)C2=C(C1=O)C(O)CC1C(C)(C)CCCC21C (centres undefined) = No
• O=C(Nc1c(C(F)(F)F)cc(-c2ccccc2)[nH]c1=O)N1CCOCC1 = No
• O=c1c(Cl)c(Cl)cnn1CCc1ccncc1 = No
• O=C(CC(=O)n1nc(-c2ccccc2)c(/N=N/c2ccc(Cl)cc2)c1-c1ccccc1)Nc1cccc(Cl)c1 = No

###

tested on: ACHN; assay: NCI tumour cell line growth inhibition, 48 h
Activity calls are given as the source filed them. No stated cut-off is given here; in the data, active = GI50 up to about 1.1 µM and inactive = higher.
Reported property: GI50

- CC(C)(O)C1OCC(C2CCC3(C)C4=CCC5C(C)(C)C(O)CCC5(C)C4CCC23C)CC1O (stereo unspecified): 15.3 µM (inactive)
- CC(C)C/C=C/C1=NN(c2cccc(S(=O)(=O)O)c2)C2(C1)SCC(=O)N2c1nc2ccccc2s1 (stereo unspecified): 72.4 µM (inactive)
- O=C(CCn1[nH]c(=O)c(Cl)c(Cl)c1=O)NO: > 100 µM (inactive)
- CSc1nc2c(c(N(C)C)n1)C=Nn1c(nc3ccccc31)S2: 61.2 µM (inactive)
- COC(=O)NC(Nc1ccc(C)cc1)(C(F)(F)F)C(F)(F)F: > 100 µM (inactive)
- COc1ccc(C(=O)Nc2ccc(O)c(=O)cc2)cc1: 23.7 µM (inactive)
- COc1cc(/C=N/NC(=O)c2c(Cl)c(Cl)c(Cl)c(Cl)c2-c2nc3ccccc3[nH]2)ccc1O: 21.4 µM (inactive)
- CCOc1ncnc2ccc(Cl)c(I)c12: 33.6 µM (inactive)
- COC(=O)/C=C1\C(=O)N(C(C)=O)c2ccccc21: 6.82 µM (inactive)
- C=CC1(c2ccccc2Cl)N/C(=C/OCC)CO1 (stereo unspecified): > 100 µM (inactive)
- O=C(Nc1c(C(F)(F)F)cc(-c2ccccc2)[nH]c1=O)N1CCOCC1: > 100 µM (inactive)

###

tested on: SK-MEL-5; test: NCI tumour cell line growth inhibition, 48 h
The source made the active and inactive calls. Cut-off read from the data, not from the text of the source: active = GI50 up to about 1.1 µM and inactive = higher.
Labels: active, inactive

• CC(C)C/C=C/C1=NN(c2cccc(S(=O)(=O)O)c2)C2(C1)SCC(=O)N2c1nc2ccccc2s1 (stereo not given) = inactive
• NC(=O)c1nnn(-c2ccccc2)c1O = inactive
• CCCCCCCCCCCCCCCCNc1nc(=O)n(C2CC(O)C(COP(=O)(O)OC3CC(n4cc(F)c(=O)[nH]c4=O)OC3CO)O2)cc1F (stereo not given) = active
• CCOC(=O)c1cc(Br)c(-c2onc(C)c2Br)n1C = inactive
• CN(C1=NCCO1)c1cccc2ccccc12 = inactive

###

system: NCI-H226; test: NCI tumour cell line growth inhibition, 48 h
Active and inactive are the calls of the source. Rule as the data show it: active = GI50 up to about 1.1 µM and inactive = higher.
Attribute: GI50
Reported property: GI50

• CCc1n[nH]c(=O)n1-c1ccncc1 = > 100 µM (inactive)
• COc1ccccc1C1Nn2c(nc3ccccc3c2=O)N1c1ccc(C)cc1 (stereo unspecified) = 2.77 µM (inactive)
• Cn1cnc(N)c(N=O)c1=O = > 10 µM (inactive)
• NC(=O)c1nnn(-c2ccccc2)c1O = > 100 µM (inactive)
• O=C(CC(O)(c1ccccc1)c1ccc(Cl)cc1)NC(=O)c1ccccc1O (stereo unspecified) = 7.87 µM (inactive)
• CN(C)c1nc2n(CCO)c(-c3ccccc3)c(-c3ccccc3)nc-2c(=O)n1 = > 100 µM (inactive)
• C=CCCC(=O)N1CCC(C(=O)OCC)C1=O (stereo unspecified) = 90.8 µM (inactive)
• O=C(CC(=O)n1nc(-c2ccccc2)c(/N=N/c2ccc(Cl)cc2)c1-c1ccccc1)Nc1cccc(Cl)c1 = 28.3 µM (inactive)
• CC(=O)OC1(Sc2ccccc2)CC2[C@H]3COC(C)(C)O[C@H]3CC[C@@]2(C)CC1=O (stereo partly specified) = 20.2 µM (inactive)
• CC(C)=CCOc1cc(NC(=S)c2ccoc2C)ccc1Cl [UC 781] = 57.4 µM (inactive)
• O=c1cc(NNc2cccc(Cl)c2)[nH]c(=O)[nH]1 = > 100 µM (inactive)

###

tested on: LOX IMVI; test: NCI tumour cell line growth inhibition, 48 h
Activity calls are given as the source filed them. No stated cut-off is given here; in the data, active = GI50 up to about 1.1 µM and inactive = higher.
Reported property: GI50

- CC(O)CN1C(=O)NC(Cc2ccccc2)C1=O (stereo not given): > 100 µM (inactive)
- CCOc1c2ccsc2c(OCC)c2ccsc12: 2.61 µM (inactive)
- Cc1ccc(S(=O)(=O)NC(=O)OC23COCN2COC3)cc1: > 100 µM (inactive)
- CC1=C2C(=O)c3ccccc3C(=O)[C@H]2C[C@@H](N2CCCC2=O)O1: 20.2 µM (inactive)
- CN(C)c1ccc(/C=C(\NC(=O)c2ccccc2)C(=O)Nc2ccccc2C(=O)NN2C(=O)CSC2c2ccc(N(C)C)cc2)cc1 (stereo not given): > 100 µM (inactive)

###

system: SF-539; experiment: NCI tumour cell line growth inhibition, 48 h
Calls of active or inactive are those of the source. Cut-off read from the data, not from the text of the source: active = GI50 up to about 1.1 µM and inactive = higher.
Labels: Y for active, N for inactive

- COC(=O)C12C3C4(C(=O)OC)C1C1(C(=O)OC)C2C3(C(=O)OC)C41C(=O)N(C(C)C)C(C)C (stereo not given): N
- Cc1c(C2CCSc3ccccc3N2)sc2ccccc12 (stereo not given): N
- C[C@]12CC[C@@H]3c4cc(Br)c(O)c(Br)c4CC[C@H]3[C@@H]1CCC2=O: N
- O=C1Nc2ccccc2/C1=C1/Nc2ccccc2/C1=N/OCCO: N
- CN(C1=NCCO1)c1cccc2ccccc12: N
- CC(=O)Oc1ccc(C(c2ccc(OC(C)=O)cc2)c2ccccn2)cc1: N
- O=C(NNC(=S)Nc1ccc(Br)cc1)c1cc(-c2ccccc2)nc2ccccc12: N
- C[n+]1ccc(-c2cc[n+](C)cc2)cc1 [PARAQUAT DICHLORIDE]: N
- CC12CCC(=O)[C@@]1(C)CCCC2O (stereo not given in full): N
- CCCCCCCCCCCCCCCCNc1nc(=O)n(C2CC(O)C(COP(=O)(O)OC3CC(n4cc(F)c(=O)[nH]c4=O)OC3CO)O2)cc1F (stereo not given): Y
